measurementDescription: In vitro microsomal stability, rat
Format: in vitro ADME
experimentalContext: 30 min
property: % of compound remaining when incubated in rat liver microsomes with NADPH

                                   compound  measurement
0  CC(O)C(O)CCNC(=O)[C@@H]1N[C@H](CC(C)(C)C)[C@]2(C(=O)Nc3cc(Cl)c(F)cc32)[C@H]1c1cccc(Cl)c1 (stereo partly shown)       42.91%
1  CC(C)(C)C[C@H]1N[C@@H](C(=O)NC2CC(O)C2)[C@H](c2cccc(Cl)c2F)[C@@]12C(=O)Nc1cc(Cl)ccc12 (stereo partly shown)        40.6%
2  CC(C)(C)C[C@H]1N[C@@H](C(=O)N[C@H]2C[C@@H](O)C2)[C@H](c2cccc(Cl)c2F)[C@@]12C(=O)Nc1cc(Cl)ccc12 (stereo in doubt)       29.41%
3  CC(C)(C)C[C@H]1N[C@@H](C(=O)N[C@H]2C[C@@](C)(O)C2)[C@H](c2cccc(Cl)c2F)[C@@]12C(=O)Nc1cc(Cl)ccc12       43.38%
